test: Non-clinical drug–drug interaction / oral pharmacokinetic study in Sprague–Dawley rats; type: in vivo, rat; conditions: male, Sprague-Dawley, rat, plasma, po, 5 mg/kg, Cmax of saxagliptin, co-administered with nicardipine, rat, po, SXG 5 mg/kg + NCD 15 mg/kg, mean ± SD
ENDPOINT_LABEL: Cmax (ng/mL)

>>> numeric_value("N#C[C@@H]1C[C@@H]2C[C@@H]2N1C(=O)[C@@H](N)C12CC3CC(CC(O)(C3)C1)C2 [saxagliptin]")
281

---

Assay: Non-clinical drug–drug interaction / oral pharmacokinetic study in Sprague–Dawley rats
Type: in vivo, rat
Conditions: male, Sprague-Dawley, rat, plasma, po, 5 mg/kg, AUCinf of saxagliptin, co-administered with nicardipine, rat, po, SXG 5 mg/kg + NCD 15 mg/kg, mean ± SD
Source text: Male Sprague–Dawley (SD) rats, 7 weeks old (180–210 g), were purchased from Hana Biotech (Pyeongtaek, Republic of Korea). […] The calculated pharmacokinetic parameters included the following: area under the time–plasma concentration curve (AUC) between from0 to infinity (AUCinf); maximum plasma concentration (Cmax); time to reach maximum concentration (Tmax); terminal half-life (t1/2); oral clearance (CL/F). Pharmacokinetic parameters are expressed as the mean ± standard deviation (SD). […]
ENDPOINT_LABEL: AUC(0-inf) (ng·h/mL)

>>> numeric_value("N#C[C@@H]1C[C@@H]2C[C@@H]2N1C(=O)[C@@H](N)C12CC3CC(CC(O)(C3)C1)C2 [saxagliptin]")
408

---

assay: Non-clinical drug–drug interaction / oral pharmacokinetic study in Sprague–Dawley rats; assay type: in vivo, rat; details: male, Sprague-Dawley, rat, plasma, po, 15 mg/kg, t1/2 of nicardipine, 15 mg/kg alone, mean ± SD
ENDPOINT_LABEL: half-life (min)

>>> numeric_value("COC(=O)C1=C(C)NC(C)=C(C(=O)OCCN(C)Cc2ccccc2)C1c1cccc([N+](=O)[O-])c1 (stereo not shown)")
346

---

test: Non-clinical drug–drug interaction / oral pharmacokinetic study in Sprague–Dawley rats; format: in vivo, rat; conditions: male, Sprague-Dawley, rat, plasma, po, 15 mg/kg, Cmax of nicardipine, 15 mg/kg alone, mean ± SD
ENDPOINT_LABEL: Cmax (ng/mL)

>>> numeric_value("COC(=O)C1=C(C)NC(C)=C(C(=O)OCCN(C)Cc2ccccc2)C1c1cccc([N+](=O)[O-])c1 (stereo not shown) [nicardipine]")
132

---

assay: Non-clinical drug–drug interaction / oral pharmacokinetic study in Sprague–Dawley rats; assay type: in vivo, rat; details: male, Sprague-Dawley, rat, plasma, po, 5 mg/kg, Tmax of saxagliptin, alone, SXG 5 mg/kg alone, mean ± SD
ENDPOINT_LABEL: Tmax (min)

>>> numeric_value("N#C[C@@H]1C[C@@H]2C[C@@H]2N1C(=O)[C@@H](N)C12CC3CC(CC(O)(C3)C1)C2")
25

---

assay: Non-clinical drug–drug interaction / oral pharmacokinetic study in Sprague–Dawley rats; format: in vivo, rat; conditions: male, Sprague-Dawley, rat, plasma, po, 15 mg/kg, Tmax of nicardipine, 15 mg/kg alone, mean ± SD
ENDPOINT_LABEL: Tmax (min)

>>> numeric_value("COC(=O)C1=C(C)NC(C)=C(C(=O)OCCN(C)Cc2ccccc2)C1c1cccc([N+](=O)[O-])c1 (stereo not shown)")
21.4

---

assay: Non-clinical drug–drug interaction / oral pharmacokinetic study in Sprague–Dawley rats; format: in vivo, rat; conditions: male, Sprague-Dawley, rat, plasma, po, 5 mg/kg, CL/F of saxagliptin, co-administered with nicardipine, rat, po, SXG 5 mg/kg + NCD 15 mg/kg, mean ± SD
ENDPOINT_LABEL: CL/F

>>> result("N#C[C@@H]1C[C@@H]2C[C@@H]2N1C(=O)[C@@H](N)C12CC3CC(CC(O)(C3)C1)C2 [saxagliptin]")
"238 mL/min/kg"

---

assay: Non-clinical drug–drug interaction / oral pharmacokinetic study in Sprague–Dawley rats; assay type: in vivo, rat; conditions: male, Sprague-Dawley, rat, plasma, po, 5 mg/kg, AUCinf of saxagliptin, alone, SXG 5 mg/kg alone, mean ± SD
ENDPOINT_LABEL: AUC(0-inf)

>>> result("N#C[C@@H]1C[C@@H]2C[C@@H]2N1C(=O)[C@@H](N)C12CC3CC(CC(O)(C3)C1)C2 [saxagliptin]")
"156 ng·h/mL"

---

experiment: Non-clinical drug–drug interaction / oral pharmacokinetic study in Sprague–Dawley rats; format: in vivo, rat; conditions: male, Sprague-Dawley, rat, plasma, po, 15 mg/kg, AUCinf of nicardipine, 15 mg/kg alone, mean ± SD
ENDPOINT_LABEL: AUC(0-inf) (µg·h/mL)

>>> numeric_value("COC(=O)C1=C(C)NC(C)=C(C(=O)OCCN(C)Cc2ccccc2)C1c1cccc([N+](=O)[O-])c1 (stereo not shown)")
0.408

---

Target: CYP3A2 (Rattus norvegicus)
Construct: purchased Xenotech (Lenexa, KS, USA)
Sequence (P05183 1-504): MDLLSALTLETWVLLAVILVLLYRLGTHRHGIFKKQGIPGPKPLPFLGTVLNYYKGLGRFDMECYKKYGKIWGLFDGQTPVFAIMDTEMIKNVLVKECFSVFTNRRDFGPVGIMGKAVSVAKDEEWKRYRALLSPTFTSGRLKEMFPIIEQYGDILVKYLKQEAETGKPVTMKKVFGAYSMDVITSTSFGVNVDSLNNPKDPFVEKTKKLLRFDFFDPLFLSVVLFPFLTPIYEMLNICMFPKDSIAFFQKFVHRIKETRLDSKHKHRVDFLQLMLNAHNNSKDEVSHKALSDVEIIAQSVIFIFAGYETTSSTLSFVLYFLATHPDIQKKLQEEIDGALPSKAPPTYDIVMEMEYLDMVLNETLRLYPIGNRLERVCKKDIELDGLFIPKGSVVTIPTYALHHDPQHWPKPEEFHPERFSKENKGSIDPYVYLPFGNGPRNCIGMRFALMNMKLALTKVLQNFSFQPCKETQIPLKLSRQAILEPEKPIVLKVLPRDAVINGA
Test: Saxagliptin metabolic stability with recombinant rat CYP3A2
Type: in vitro ADME
Details: rat, recombinant rat CYP3A2, pH 7.4; read-out: half-life after incubation with rCYP3A2 reaction mixture
Experimental: After initiating the reaction by adding NADPH solution, the sampling was carried out at 37 °C for 0, 5, 10, 20, and 30 min in triplicate and stopped with methanol containing 200 ng/mL tolbutamide as an internal standard (IS) for HPLC analysis.
ENDPOINT_LABEL: half-life at 5 μM (min)

>>> numeric_value("N#C[C@@H]1C[C@@H]2C[C@@H]2N1C(=O)[C@@H](N)C12CC3CC(CC(O)(C3)C1)C2 [saxagliptin]")
34.8
